For each entry below, report its interaction score value.
- MEASURED_ON: T1, 4H56-bA
- T1 chain: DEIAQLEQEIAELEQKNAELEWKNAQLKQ
- ASSAY_METHOD_TEXT: two-hybrid library CCNG1;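 also: natural log of median RNA to DNA barcode read ratio; higher means stronger binding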
Response field accepts a number only; no unit should be typed.

Data request: For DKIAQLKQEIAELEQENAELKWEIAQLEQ [4H2585-bA] , what is its reported interaction score?
Data returned: -0.397

Data request: For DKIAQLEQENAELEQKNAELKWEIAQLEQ [4H2233-bA] , what is its reported interaction score?
Data returned: -1.39

Data request: For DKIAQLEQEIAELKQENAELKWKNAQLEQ [4H2143-bA] , what is its reported interaction score?
Data returned: -0.735

Data request: For DKIAQLKQKNAELKQKIAELEWEIAQLEQ [4H3041-bA] , what is its reported interaction score?
Data returned: 0.805

Data request: For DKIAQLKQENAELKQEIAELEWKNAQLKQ [4H2760-bA] , what is its reported interaction score?
Data returned: -1.54

Data request: For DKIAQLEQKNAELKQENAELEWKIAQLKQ [4H2518-bA] , what is its reported interaction score?
Data returned: -1.52

Data request: For DKNAQLEQKIAELEQKIAELEWENAQLKQ [4H3364-bA] , what is its reported interaction score?
Data returned: 0.349

meta.source: paper PMC10397247
